Data credit: ChEMBL document CHEMBL1138215

# measured_on: 4-amino-4-deoxychorismate synthase (Escherichia coli)
# test: Inhibition of ADCS
We'd kindly ask you to apply these Ki classes: range A = under 1000 µM, range B = from 1000 µM up to 10000 µM, range C = 10000 µM and over

{"compound": "CC(C(=O)N[C@@H](CCCCNC(=O)c1cccc(OCC(=O)O)c1)C(=O)NCCc1cccc2c1oc1c(CCC(N)=O)cccc12)c1ccc([N+](=O)[O-])cc1 (stereo partly drawn)", "measured_on": "4-amino-4-deoxychorismate synthase (Escherichia coli)", "category_label": "range A"}
{"compound": "O=C(O)CCNc1ccc(C(=O)O)cc1", "measured_on": "4-amino-4-deoxychorismate synthase (Escherichia coli)", "category_label": "range C"}
{"compound": "O=C(O)c1ccc(=O)oc1", "measured_on": "4-amino-4-deoxychorismate synthase (Escherichia coli)", "category_label": "range B"}
{"compound": "Cc1ccc(C(=O)N[C@@H](CCCCNC(=O)c2cccc(OCC(=O)O)c2)C(=O)N[C@@H](Cc2cccc(Cl)c2)C(=O)NCCOCCOCCNC(=O)CCC(=O)N2CCN(CC(N)=O)CC2)c([N+](=O)[O-])c1O", "measured_on": "4-amino-4-deoxychorismate synthase (Escherichia coli)", "category_label": "range B"}
{"compound": "COc1cccc(OC)c1C(=O)N[C@@H](CCCCNC(=O)c1cccc(OCC(=O)O)c1)C(=O)N[C@@H](Cc1ccc([N+](=O)[O-])c(O)c1)C(N)=O", "measured_on": "4-amino-4-deoxychorismate synthase (Escherichia coli)", "category_label": "range A"}
{"compound": "Cc1ccc(C(=O)N[C@@H](CCCCNC(=O)c2cccc(OCC(=O)O)c2)C(=O)N[C@@H](Cc2cccc(Cl)c2)C(N)=O)c([N+](=O)[O-])c1O", "measured_on": "4-amino-4-deoxychorismate synthase (Escherichia coli)", "category_label": "range A"}
{"compound": "Cc1ccc(C(=O)N[C@@H](CCCCNC(=O)c2cccc(OCC(=O)O)c2)C(=O)N[C@@H](Cc2ccc(C#N)cc2)C(N)=O)c([N+](=O)[O-])c1O", "measured_on": "4-amino-4-deoxychorismate synthase (Escherichia coli)", "category_label": "range A"}
{"compound": "O=C(O)CNc1cc(C(=O)O)ccc1F", "measured_on": "4-amino-4-deoxychorismate synthase (Escherichia coli)", "category_label": "range B"}
{"compound": "NC(=O)C1(NC(=O)[C@H](CCCCNC(=O)c2cccc(OCC(=O)O)c2)NC(=O)c2cc(O)cc(O)c2)CCCCC1", "measured_on": "4-amino-4-deoxychorismate synthase (Escherichia coli)", "category_label": "range B"}
{"compound": "Cc1ccc(C(=O)N[C@@H](CCCCNC(=O)c2cccc(OCC(=O)O)c2)C(=O)NCC(C(N)=O)C2CCCCC2)c([N+](=O)[O-])c1O (stereo partly drawn)", "measured_on": "4-amino-4-deoxychorismate synthase (Escherichia coli)", "category_label": "range B"}
{"compound": "NC(=O)c1cccc(OCC(=O)O)c1", "measured_on": "4-amino-4-deoxychorismate synthase (Escherichia coli)", "category_label": "range C"}
{"compound": "O=C(O)COc1cccc(C(=O)O)c1", "measured_on": "4-amino-4-deoxychorismate synthase (Escherichia coli)", "category_label": "range C"}
{"compound": "CC(C(=O)N[C@@H](CCCCNC(=O)c1cccc(OCC(=O)O)c1)C(=O)NCCc1cccc2c1oc1c(CCC(=O)NCCOCCOCCNC(=O)CCC(=O)N3CCN(CC(N)=O)CC3)cccc12)c1ccc([N+](=O)[O-])cc1 (stereo partly drawn)", "measured_on": "4-amino-4-deoxychorismate synthase (Escherichia coli)", "category_label": "range B"}
{"compound": "NC(=O)C1(NC(=O)[C@H](CCCCNC(=O)c2cccc(OCC(=O)O)c2)NC(=O)c2ccc(Oc3ccccc3)cc2)CCS(=O)(=O)CC1", "measured_on": "4-amino-4-deoxychorismate synthase (Escherichia coli)", "category_label": "range A"}
{"compound": "CC(=O)N[C@@H](CCCCNCc1cccc(OCC(=O)O)c1)C(N)=O", "measured_on": "4-amino-4-deoxychorismate synthase (Escherichia coli)", "category_label": "range C"}
{"compound": "O=C(O)COc1ccc(C(=O)O)cc1", "measured_on": "4-amino-4-deoxychorismate synthase (Escherichia coli)", "category_label": "range C"}
{"compound": "CC(=O)N[C@@H](CCCCNC(=O)c1cccc(OCC(=O)O)c1)C(N)=O", "measured_on": "4-amino-4-deoxychorismate synthase (Escherichia coli)", "category_label": "range C"}
{"compound": "NC(=O)C1(NC(=O)[C@H](CCCCNC(=O)c2cccc(OCC(=O)O)c2)NC(=O)c2ncccc2C(=O)c2ccccc2)CCCCC1", "measured_on": "4-amino-4-deoxychorismate synthase (Escherichia coli)", "category_label": "range B"}
